Attribution: paper PMC5394233

- TEST_SYSTEM: T1, flPOT1 Q623H (Homo sapiens, UniProt Q9NUX5 1-634, Q623H)
- T1 sequence: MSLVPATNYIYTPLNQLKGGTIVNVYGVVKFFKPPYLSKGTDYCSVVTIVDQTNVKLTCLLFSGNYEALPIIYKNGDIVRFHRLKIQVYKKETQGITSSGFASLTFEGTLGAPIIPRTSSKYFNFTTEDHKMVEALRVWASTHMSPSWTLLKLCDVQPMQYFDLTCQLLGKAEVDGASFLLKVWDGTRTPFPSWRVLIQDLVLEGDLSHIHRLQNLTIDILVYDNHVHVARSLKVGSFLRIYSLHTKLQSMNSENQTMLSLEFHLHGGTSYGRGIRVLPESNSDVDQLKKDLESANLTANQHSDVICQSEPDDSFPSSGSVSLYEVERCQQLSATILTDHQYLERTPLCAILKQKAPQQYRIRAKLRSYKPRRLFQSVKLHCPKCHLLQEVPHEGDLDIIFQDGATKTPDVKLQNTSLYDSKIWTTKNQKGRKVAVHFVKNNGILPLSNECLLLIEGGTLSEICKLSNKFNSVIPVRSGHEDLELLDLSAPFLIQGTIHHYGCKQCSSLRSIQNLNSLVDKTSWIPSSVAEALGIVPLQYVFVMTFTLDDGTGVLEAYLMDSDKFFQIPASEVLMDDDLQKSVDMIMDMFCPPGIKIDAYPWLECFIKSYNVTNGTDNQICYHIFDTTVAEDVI
- TEST_NAME: fluorescence polarization; FP: 20 mM Hepes pH 7.5, 100 mM KCl, 2 mM MgCl2, 1 mM EDTA, 2 mM DTT, 1 mg/ml BSA, 5% glycerol, 75 nM polyT50 competitor, 2.5 nM probe, room temperature 30 min
- ASSAY_CONTEXT: protein: recombinant; tags: N-terminal His6-pMocr, TEV-cleaved; label: 5' 6-FAM; single strand
ASSAY_ENDPOINT: Kd

Entry TTAGGGTTAGGGTTAGGG (ssDNA) [telomeric 18mer (TTAGGG)3] ; Kd = ~20 nM
